target of assay: P2X7 receptor (Homo sapiens, UniProt Q99572)
Construct: endogenous in cells; host or cells: THP-1 cells differentiated with LPS and IFN-γ
Sequence (Q99572 whole entry): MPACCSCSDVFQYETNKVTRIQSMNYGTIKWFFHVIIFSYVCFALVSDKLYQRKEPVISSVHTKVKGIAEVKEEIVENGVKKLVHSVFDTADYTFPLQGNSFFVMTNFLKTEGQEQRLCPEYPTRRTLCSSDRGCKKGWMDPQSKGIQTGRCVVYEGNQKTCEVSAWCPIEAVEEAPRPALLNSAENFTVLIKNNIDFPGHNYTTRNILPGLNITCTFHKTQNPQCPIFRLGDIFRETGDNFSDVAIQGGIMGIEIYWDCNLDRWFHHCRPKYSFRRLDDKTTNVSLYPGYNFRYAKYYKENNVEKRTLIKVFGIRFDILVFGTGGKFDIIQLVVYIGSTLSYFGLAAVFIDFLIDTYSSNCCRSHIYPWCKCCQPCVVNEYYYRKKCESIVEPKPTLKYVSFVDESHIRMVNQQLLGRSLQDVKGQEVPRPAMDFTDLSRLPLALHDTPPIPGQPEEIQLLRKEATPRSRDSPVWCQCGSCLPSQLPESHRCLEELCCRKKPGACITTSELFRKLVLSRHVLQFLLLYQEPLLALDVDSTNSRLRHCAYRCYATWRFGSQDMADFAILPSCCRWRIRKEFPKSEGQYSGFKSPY
assay remarks: IL-1β release assay in differentiated THP-1 cells stimulated with BzATP (Example 9)
Assay type: cell-based
cond: four parameter logistic fit, read-out: IL-1β IC50
pIC50: −log10 of the molar value.
# pIC50 >= 8 gives True, anything below gives False

Evaluate O=C(Cc1cccc(C(F)(F)F)c1F)Nc1cccc2c(=O)n(C3CCC3)ccc12 : pIC50 at minimum 8?
False

###

Quick list: inhibition at 0.3 µM per entry.
target of assay: P2X7 receptor (Homo sapiens)
Construct: endogenous in cells; host or cells: THP-1 cells differentiated with LPS and IFN-γ
assay remarks: IL-1β release assay in differentiated THP-1 cells stimulated with BzATP (Example 9)
Assay type: cell-based
cond: 0.3 μM concentration, read-out: IL-1β % Inhib. @ 0.3 or 0.1 μM
Experimental: The cells are then pretreated for 30 minutes with the compound of interest at the appropriate concentration in RPMI media containing 100 IU/mL penicillin, 100 ug/mL streptomycin. […] 30 uL of cell supernatant is then collected and IL-1β levels determined via ELISA (R&D systems Cat. # HSLB50) according to manufacturer's recommendations using the Tecan Safire plate reader. Background adjusted IL-1β levels of drug treated and non-treated cells are used to calculate the percent inhibition. […]

Recorded inhibition at 0.3 µM for O=C(Cc1ccc(C(F)(F)F)cc1C(F)(F)F)Nc1cccc2c(=O)n(C3CC3)ccc12 , please?
> 76%

// returns reported inhibition at 0.3 µM for input CC(C(=O)Nc1cccc2c(=O)n(C3CCNC3)ccc12)c1ccc(Cl)c(Cl)c1 (centres unmarked)
51 to 75%

Others:
Look at this compound and give its reported inhibition at 0.3 µM. O=C(Cc1ccc(Cl)c(C(F)(F)F)c1)Nc1cccc2c(=O)n([C@H]3CCNC3)ccc12
> 76%

Name the reported inhibition at 0.3 µM value associated with the compound Cc1ncccc1-n1ccc2c(NC(=O)Cc3ccc(C(F)(F)F)cc3F)cccc2c1=O
> 76%

###

target of assay: P2X7 receptor (Homo sapiens, UniProt Q99572)
Construct: endogenous in cells; host or cells: THP-1 cells differentiated with LPS and IFN-γ
assay remarks: IL-1β release assay in differentiated THP-1 cells stimulated with BzATP (Example 9)
Format: cell-based
cond: four parameter logistic fit, read-out: IL-1β IC50
pIC50: −log10 of the molar value.
# label = Satisfied if pIC50 >= 8 else Not satisfied

Worked cases, answers included:
Please check the record O=C(Cc1cccc(C(F)(F)F)c1F)Nc1cccc2c(=O)n(C3CC3)ccc12 [ID 885] and state if its pIC50 is at or above 8.
Satisfied

Identify whether the reported pIC50 of the following compound is 8 or greater: O=C(Cc1ccc(C(F)(F)F)cc1F)Nc1cccc2c(=O)n(C3CCC3)ccc12 [ID 887]
Not satisfied

For this compound, is measured pIC50 8 or higher? O=C(Cc1ccc(Cl)c(C(F)(F)F)c1)Nc1cccc2c(=O)n(-c3cccnc3N3CCOCC3)ccc12 [ID 848]
Not satisfied

API: above_or_equal(metric=pIC50, cutoff=8) for item Cc1ccncc1-n1ccc2c(NC(=O)CC34CC5CC(CC(C5)C3)C4)cccc2c1=O [ID 702]
Satisfied

Decide: is the reported value of pIC50 for O=C(CC12CC3CC(CC(C3)C1)C2)Nc1cccc2c(=O)n(-c3ccc(N4CCOCC4)nc3)ccc12 [ID 709] equal to or greater than 8?
Not satisfied

***
Is it the case that Cc1ncccc1-n1ccc2c(NC(=O)[C@@H](C)c3ccc(Cl)cc3)cccc2c1=O [ID 864] has pIC50 reaching or exceeding 8?
Not satisfied
